experimentalDetails: xn = mol fraction of the nth substance listed
conditionSet: 298.15 K; 101 kPa; Liquid; Dispersion; x1 = 0
testReadout: binary diffusion coefficient (m2/s)

OCCc1ccccc1 [2-phenylethanol] + O; 7.92e-10
OCCCc1ccccc1 [3-phenyl-1-propanol] + O; 7.22e-10
OCc1ccccc1 [benzenemethanol] + O; 8.3e-10
OCCCCCc1ccccc1 [1-pentanol, 5-phenyl-] + O; 5.32e-10
OCCCCc1ccccc1 [4-phenyl-1-butanol] + O; 6.64e-10

Cited source: the NIST ThermoML archive (doi:10.1021/je900967j)
